Conditions: in isopropanol, 288.15 K
measure_name: solubility (mole fraction)
# answer = number (no unit)

query: // fetch solubility (mole fraction) given entry C1OCOCO1
result: 0.17

---

Details: in methanol, 313.15 K
measure_name: solubility (mole fraction)
Format: numeric value only, no unit, no commentary.

query: Specify solubility (mole fraction) for C1OCOCO1 and stop.
result: 0.517

---

Conditions: in dimethoxymethane, 303.15 K
measure_name: solubility (mole fraction)
Kindly provide the number alone.

query: Consider the compound C1OCOCO1 . State its measured solubility (mole fraction).
result: 0.489

---

Conditions: in ethanol, 318.15 K
measure_name: solubility (mole fraction)
Note: the reply should be a number with no unit written.

query: Answer with reported solubility (mole fraction) of C1OCOCO1
result: 0.591

---

Conditions: in isopropanol, 313.15 K
measure_name: solubility (mole fraction)

query: Give reported solubility (mole fraction) value for C1OCOCO1
result: 0.511

---

Details: in dimethoxymethane, 300.15 K
measure_name: solubility (mole fraction)
Format: numeric value only, no unit, no commentary.

query: Quick one: give measured solubility (mole fraction) for C1OCOCO1
result: 0.452

---

Conditions: in isopropanol, 308.15 K
measure_name: solubility (mole fraction)

query: Find the measured solubility (mole fraction) of C1OCOCO1 and report it.
result: 0.417

---

Details: in methanol, 298.15 K
measure_name: solubility (mole fraction)
Answer with a number only.

query: Kindly indicate its recorded solubility (mole fraction). Item: C1OCOCO1
result: 0.26

---

Settings: in methanol, 288.15 K
measure_name: solubility (mole fraction)
Lab note: jot the number down without any unit.

query: Using known records, supply solubility (mole fraction) for C1OCOCO1
result: 0.167

---

Details: in methanol, 303.15 K
measure_name: solubility (mole fraction)

query: Fill in reported solubility (mole fraction) for this entry: C1OCOCO1
result: 0.318

---

Conditions: in ethanol, 328.15 K
measure_name: solubility (mole fraction)
Output: the number by itself.

query: Kindly indicate its recorded solubility (mole fraction). Item: C1OCOCO1
result: 0.913

---

Details: in ethanol, 323.15 K
measure_name: solubility (mole fraction)
Please reply with the number alone, leaving off any unit.

query: For the compound C1OCOCO1 , give its measured solubility (mole fraction) value.
result: 0.74

---

Details: in isopropanol, 323.15 K
measure_name: solubility (mole fraction)
// no unit string in output, number only

query: Fill in solubility (mole fraction) for record C1OCOCO1
result: 0.793

---

Settings: in ethanol, 288.15 K
measure_name: solubility (mole fraction)
Form field (numeric): enter value without unit.

query: For the compound C1OCOCO1 , give its measured solubility (mole fraction) value.
result: 0.136

---

Conditions: in ethanol, 293.15 K
measure_name: solubility (mole fraction)
Reply with just the number.

query: Answer with the recorded solubility (mole fraction) of C1OCOCO1 only.
result: 0.175

---

Settings: in dimethoxymethane, 288.15 K
measure_name: solubility (mole fraction)
Please respond with just the number, no unit label.

query: Give the value of solubility (mole fraction) reported for the following: C1OCOCO1
result: 0.32

---

Conditions: in ethanol, 303.15 K
measure_name: solubility (mole fraction)
Lab note: write the figure by itself, no unit.

query: Report solubility (mole fraction) for C1OCOCO1
result: 0.29

---

Settings: in dimethoxymethane, 306.15 K
measure_name: solubility (mole fraction)
Output spec: single numeric token, no unit.

query: Indicate its recorded solubility (mole fraction); the compound in question is C1OCOCO1
result: 0.527

---

Details: in methanol, 308.15 K
measure_name: solubility (mole fraction)
Reply with the value as a number alone.

query: Report solubility (mole fraction), nothing else, for this molecule: C1OCOCO1
result: 0.398

---

Conditions: in isopropanol, 293.15 K
measure_name: solubility (mole fraction)
Please state the value as a number alone, without comment.

query: Supply reported solubility (mole fraction) belonging to this molecule: C1OCOCO1
result: 0.213

---

Conditions: in isopropanol, 298.15 K
measure_name: solubility (mole fraction)
Simply state the number, no unit and no words.

query: Input C1OCOCO1 , output reported solubility (mole fraction).
result: 0.268

---

Conditions: in methanol, 293.15 K
measure_name: solubility (mole fraction)
Just the number, please.

query: State its solubility (mole fraction) for this molecule: C1OCOCO1
result: 0.21

---

Conditions: in isopropanol, 328.15 K
measure_name: solubility (mole fraction)
Lab note: write the figure by itself, no unit.

query: Consider the compound C1OCOCO1 and give its recorded solubility (mole fraction).
result: 0.945

---

Conditions: in methanol, 321.15 K
measure_name: solubility (mole fraction)
Please reply with the value in numeric form only.

query: State, in one line, measured solubility (mole fraction) of C1OCOCO1
result: 0.8

---

Details: in dimethoxymethane, 312.15 K
measure_name: solubility (mole fraction)

query: Read the entry C1OCOCO1 and write its reported solubility (mole fraction).
result: 0.608

---

Details: in methanol, 318.15 K
measure_name: solubility (mole fraction)

query: Entry C1OCOCO1 needs its solubility (mole fraction) filled in; supply it.
result: 0.645

---

Conditions: in dimethoxymethane, 297.15 K
measure_name: solubility (mole fraction)
Answer with the value's number alone.

query: Provide only the value of recorded solubility (mole fraction) for C1OCOCO1
result: 0.416
